I'd be grateful if you could share measured Fold over buffer for these entries.
Molecular target: T1, IL-12 receptor endogenously expressed on THP-1 cells (UniProt P42701 24-662; Q99665 24-862)
T1 construct: whole, on cells
T1 sequence (Q99665 24-862, chain 2 of 2, other chains not shown): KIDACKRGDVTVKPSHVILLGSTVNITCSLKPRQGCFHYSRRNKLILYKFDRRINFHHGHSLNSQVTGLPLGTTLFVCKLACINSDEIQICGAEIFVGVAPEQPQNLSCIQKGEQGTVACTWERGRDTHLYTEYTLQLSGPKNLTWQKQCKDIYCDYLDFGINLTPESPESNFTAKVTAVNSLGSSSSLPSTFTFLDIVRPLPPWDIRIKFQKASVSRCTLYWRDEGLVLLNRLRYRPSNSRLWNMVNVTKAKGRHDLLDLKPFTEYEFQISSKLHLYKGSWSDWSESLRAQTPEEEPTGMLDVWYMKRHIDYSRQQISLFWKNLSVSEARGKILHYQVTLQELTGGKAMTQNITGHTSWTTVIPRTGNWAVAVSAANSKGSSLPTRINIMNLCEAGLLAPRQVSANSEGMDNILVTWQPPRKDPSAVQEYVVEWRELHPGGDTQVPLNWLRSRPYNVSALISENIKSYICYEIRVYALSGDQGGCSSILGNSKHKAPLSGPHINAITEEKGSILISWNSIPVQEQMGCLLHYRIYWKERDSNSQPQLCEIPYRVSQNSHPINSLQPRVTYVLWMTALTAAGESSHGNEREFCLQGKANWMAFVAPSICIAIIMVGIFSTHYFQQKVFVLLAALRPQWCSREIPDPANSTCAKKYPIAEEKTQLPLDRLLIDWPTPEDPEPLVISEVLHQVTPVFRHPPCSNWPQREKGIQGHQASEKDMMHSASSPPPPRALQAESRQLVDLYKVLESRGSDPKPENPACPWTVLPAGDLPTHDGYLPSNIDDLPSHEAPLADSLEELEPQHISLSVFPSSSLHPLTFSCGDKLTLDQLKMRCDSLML
Test: FACS, hybridoma supernatant, THP-1
Give the value in fold but do not write fold after it.

## Task Item under review: 85801_01M07 (antibody, V domains shown, also called 85801_01M07A) VH: QVQLVQSGAEVKKPGASVKVSCKASEYTFTDDYMHWVRQAPGQGLVWMGWINPNSGGTNYAQKFQGRVTMTRDTSISTAYMELSRLRSDDTAVYYCARGGLNWGWDWFDPWGQGTLVTVSS VL: EIVLTQSPGTLSLSPGERATLSCRASQNINNNYLAWYQRKPGQAPRLLIYGASSRATGIPDRFSGSGSGTDFTLTISRLEPEDFAMYYCQQYGSSLTFGGGTKVEIK . Reported Fold over buffer?
## Result 7

## Task Fold over buffer for 85801_06L19 (antibody, V domains shown, also called 85801_06L19A) VH: QVQLVQSGAEVKKPGASVKVSCKASGYTFTDYYIHWVRQAPGQGLEWMGWINPDSGGTHYAQKFQGRVTMTRDTSISTVYMDLSRLRSDDTAVYYCAREGEGLASFDSWGQGTLVTVSS VL: DIQMTQSPSSLSASVGNRVTITCRASQGINNYLAWFQQKPGKAPKSLIYAASSLQSGVPSKFSGSGSGTDFTLTISSLQPEDFATYYCQQYNNYPFTFGPGTKVDIK ?
## Result 9

## Task If you can, please state the reported Fold over buffer value of 85801_10M19 (antibody, V domains shown, also called 85801_10M19A) VH: EVQLVESGGGLVQPGGSLRLSCAASGFTFSSYDMHWVRQATGKGLEWVSVIGTAGDTYYPGSVKGRFTISRENAKNSLYLQMNSLRAGDTAVYYCARSRGETDWYFDLWGRGTLVTVSS VL: EIVLTQSPATLSLSPGERATLSCRASQSVSRLLAWYQQKPGQAPRLLIYDASNRATGIPARFSGSGSGTDFTLTISSLEPEDFAVYYCQQRRNWLTFGGGTKVEIK .
## Result 35

Data provenance is patent US20250019450A1.
